# experimentDescription: HepG2 cell viability effects, profiling panel, calcein-AM fluorescence, 48 h, basal (AID 1164); note: test concentration not given here
# experimentalParameters: higher = more signal
# cutoff 0.03 applies to z-score; >= gives true (1), < gives false (0)

Exam item: decide whether the reported z-score for CC(C)C[C@@H]1NC(=O)[C@H]2C[C@@H](C(=O)NCCCCCCNC(=O)CS)[C@@H](c3cccc(OCCO)c3)N2C1=O is at least 0.03.
true (1)

Reported z-score at or above 0.03? CCCCC=C[C@@H](NC(=O)c1ccco1)c1ccccc1
true (1)

Kindly determine if z-score recorded for COC(=O)[C@@]1(Cc2ccc(OC)cc2)[C@H]2c3cc(C(=O)N4CCCC4)n(CCc4c[nH]c5cc(F)ccc45)c3C[C@H]2CN1C(=O)c1ccccc1 is above or exactly 0.03.
true (1)

Is it the case that COc1ccc(C(=O)Nc2cccc(CN3C(=O)[C@@]4(O[C@@H](CCn5cc(CCO)nn5)[C@H]([Si](C)(C)c5ccc(OC)cc5)[C@H]4C)c4ccccc43)c2)cc1 has z-score reaching or exceeding 0.03?
false (0)

Quick check, z-score >= 0.03? COC(=O)[C@@]1(Cc2ccccc2)N=C(c2ccc(OCCCO)cc2)O[C@H]1c1ccccc1N=[N+]=[N-]
false (0)

Hi, just wondering whether COC(=O)[C@@]1(Cc2ccccc2)[C@H]2c3cc(C(=O)N(C)C)n(Cc4cc(C)n(C)n4)c3C[C@H]2CN1C(=O)c1ccccc1 shows z-score of 0.03 or higher.
false (0)

Reported z-score reaches at least 0.03 for CCOC(=O)[C@H]1C[C@H]2O[C@@]23C[C@H]1C(=O)N1CCCC1[C@@H]3O[Si](C)(C)C(C)(C)C (stereo not given in full) ?
false (0)

Assess whether reported z-score for O=C1C[C@]2(c3ccc([N+](=O)[O-])cc3)C(=O)N(CC(F)(F)F)c3cc(CO)ccc3[C@H]2N1CC12CC3CC(CC(C3)C1)C2 sits at 0.03 or higher.
true (1)

Dear colleague, could you confirm whether CN(C)C(=O)[C@]1(CCC(=O)OC(C)(C)C)N=C(c2ccc(OCCCO)cc2)O[C@@H]1c1ccccc1N=[N+]=[N-] has z-score at or above 0.03?
true (1)

Textbook exercise: given the entry C#CCN(C(/C=C/c1ccccc1)CO)C(C(=O)O)c1ccccc1 (stereo not given) , state whether its z-score is greater than or equal to 0.03.
false (0)

Answer whether z-score of C=C(COC)/C(=C/C[C@H](OC(=O)c1ccncc1)c1cccc(OCCO)c1)c1cc(C(=O)OC)ccc1OC is greater than or equal to 0.03.
false (0)

State whether the measured z-score reaches 0.03, counting equality as reaching it, for N[C@@H](Cc1ccccc1)Cn1cc(-c2ccccc2)nn1
false (0)

hey, is z-score for this one >= 0.03? CCCNC(=O)[C@@H]1c2ccccc2C(=O)N(Cc2ccccc2)[C@H]1c1ccc(CO)cc1
true (1)

hey, is z-score for this one >= 0.03? C=CCC(OC(C)=O)[C@@H]1[C@@H](N(Cc2ccc(-c3ccccc3)cc2)C(=O)Cc2ccc(OC)cc2)c2cc(OCCCO)ccc2N1C(=O)c1ccc2ccccc2n1 (stereo not given in full)
true (1)

Does the reported z-score for O=C1OCCC=C[C@H]2OC34C=CCN(Cc5ccccc5)C(=O)[C@H]3N(CCCCCO)C(=O)[C@@H]4C12 (stereo not given in full) fall at or above the 0.03 mark?
true (1)

Please indicate if the recorded z-score for CCCCCN1CC=CC23O[C@@H]4/C=C\CCCOC(=O)C4[C@H]2C(=O)N(CCCCCCO)[C@@H]3C1=O (stereo not given in full) meets or exceeds 0.03.
true (1)

Hi team, for COCCOC(=O)N1C(=O)[C@@]2(c3cc(C#CC4=CCCCC4)ccc31)[C@H](C(=O)N1CCc3cc(OC)c(OC)cc3C1)[C@H]1C(=O)O[C@H](c3ccccc3)[C@H](c3ccccc3)N1[C@@H]2c1ccccc1OCCO , is the recorded z-score at or above 0.03?
true (1)

Quick check, z-score >= 0.03? CCN(CC)c1ccc(N2CC=CC34O[C@@H]5C=CCCOC(=O)C5[C@H]3C(=O)N(CCCCCO)[C@@H]4C2=O)cc1 (stereo not given in full)
true (1)

// inclusive: z-score at least 0.03? input: COCCOC(=O)N1C(=O)[C@@]2(c3cc(C#CCC(C(=O)OC)C(=O)OC)ccc31)[C@H](c1ccc(O)cc1)N1[C@H](c3ccccc3)[C@H](c3ccccc3)OC(=O)[C@H]1[C@@H]2C(N)=O
false (0)

API: above_or_equal(metric=z-score, cutoff=0.03) for item COc1cc2c(cc1OC)CN(C(=O)[C@@H]1[C@H]3C(=O)O[C@H](c4ccccc4)[C@H](c4ccccc4)N3[C@H](c3ccccc3OCCO)[C@@]13C(=O)Nc1ccc(C#CCNC(N)=O)cc13)CC2
true (1)

Reference source: PubChem BioAssay
